Recorded IC50, one value per entry.
Test system: A2780
Test: Anti-proliferative effect (CellTiter-Glo, 72 h), A2780
Type: cell-based
Conditions: A2780 cells, median, read-out: IC50 antiproliferation assay A2780 [M] (median)
Just the number please, in M, no unit attached.

Below, 7 compounds whose answers are already recorded.
| Compound | Unit Symbol | IC50 |
| --- | --- | --- |
| CCc1nn(C)c2c1-c1c(C)ccc3c(C(C)CCOc4cccc5cc(F)ccc45)c(C(=O)O)n(c13)CCCCOC2 (single isomer, unassigned) [Example 263] | M | 1.01e-05 |
| COc1c2c(nn1C)COCCCCn1c(C(=O)O)c(CCCOc3cccc4ccccc34)c3cccc-2c31 (single isomer, unassigned) | M | 1.58e-05 |
| COCCn1nc2c(c1C1CC1)-c1cccc3c(CCCOc4cccc5ccccc45)c(C(=O)O)n(c13)CCCCOC2 (single isomer, unassigned; enantiomer 2) | M | 1.36e-05 |
| Cn1nc(COc2ccc(C3=CCOCC3)cc2)c2c1COCCCCn1c(C(=O)O)c(CCCOc3cccc4ccccc34)c3cccc-2c31 (single isomer, unassigned) [Example 1-62] | M | 5.49e-06 |
| CCc1nn(C)c2c1-c1c(C)ccc3c(C(C)CCOc4cccc5ccccc45)c(C(=O)O)n(c13)CCCCOC2 (single isomer, unassigned) [Example 274] | M | 1.17e-05 |
| COC1(c2ccc(OCc3nn(C)c4c3-c3cccc5c(CCCOc6cccc7ccccc67)c(C(=O)O)n(c35)CCCCOC4)cc2)CCOCC1 (single isomer, unassigned) | M | 6.25e-06 |
| Cc1nn(CC(F)(F)F)c2c1-c1cccc3c(CCCOc4cccc5c4CCCC5)c(C(=O)O)n(c13)CCCCOC2 (single isomer, unassigned; enantiomer 2) | M | 2.75e-05 |

Now for another entry.
Form entry - test system: A2780; read-out: IC50; compound: CC(C)OCc1nn(C)c2c1-c1cccc3c(CCCOc4cccc5ccccc45)c(C(=O)O)n(c13)CCCN(C)C2 (single isomer, unassigned)
1.85e-05

====

Each entry below carries its recorded IC50.
System: MV-4-11
Test: Anti-proliferative effect (CellTiter-Glo, 72 h), MV-4-11
Format: cell-based
Settings: MV-4-11 cells, median, read-out: IC50 antiproliferation assay MV-4-11 [M] (median)
Please state the figure in M; there is no need to write the unit.

Guide cases for IC50, answers given:
| Compound | Unit Symbol | IC50 |
| --- | --- | --- |
| Cn1nc(COCc2ccc(C#N)cc2)c2c1COCCCCn1c(C(=O)O)c(CCCOc3cccc4ccccc34)c3cccc-2c31 (single isomer, unassigned; enantiomer 2) [Example 348] | M | 4.15e-06 |
| COc1ccc2c(CCCOc3cccc4ccccc34)c(C(=O)O)n3c2c1-c1c(C)nn(C)c1COCCCC3 (single isomer, unassigned; enantiomer 2) [Example 353] | M | 3.11e-05 |

Turning now to a further record.
Which IC50 value is on record for Cc1c2c(nn1C)COCCCCn1c(C(=O)O)c(CCCOc3cccc4cc(F)ccc34)c3cccc-2c31 (single isomer, unassigned; enantiomer 1) [Example 303] ?
2.61e-05

====

Target: MCL-1 (Homo sapiens, UniProt Q07820)
Sequence (Q07820 whole entry): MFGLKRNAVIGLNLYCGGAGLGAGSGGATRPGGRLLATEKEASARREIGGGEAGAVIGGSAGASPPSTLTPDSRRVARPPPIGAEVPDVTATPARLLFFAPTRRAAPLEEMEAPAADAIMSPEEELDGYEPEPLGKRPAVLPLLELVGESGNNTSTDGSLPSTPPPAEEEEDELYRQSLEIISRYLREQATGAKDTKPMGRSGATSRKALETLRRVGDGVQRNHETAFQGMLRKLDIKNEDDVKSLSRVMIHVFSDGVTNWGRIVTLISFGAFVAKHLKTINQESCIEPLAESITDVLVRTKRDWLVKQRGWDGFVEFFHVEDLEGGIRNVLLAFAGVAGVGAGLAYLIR
Experiment: Protein-protein interaction assay MCL-1/Noxa BH3 peptide (MCL-1 assay), TR-FRET
Type: binding
Settings: MBP-MCL-1 / Noxa BH3-derived peptide, median
IC50 overview
Answer with a number only, understood to be in nM.

| Compound | IC50 (nM) |
| --- | --- |
| Cc1c2c(nn1C)COCCCCn1c(C(=O)O)c(CCCOc3cccc4ccccc34)c3cccc-2c31 (single isomer, unassigned; enantiomer 2) [Example 1-38] | 75.1 |
| Cc1c2c(nn1CCN1CCOCC1)COCCCCn1c(C(=O)O)c(CCCOc3cccc4cc(F)ccc34)c3cccc-2c31 (single isomer, unassigned) [Example 285] | 0.782 |
| CC(C)c1c2c(nn1C)CN(C)CCCn1c(C(=O)O)c(CCCOc3cccc4ccccc34)c3cccc-2c31 (single isomer, unassigned; enantiomer 2) [Example 115] | 82.9 |
| CCc1nn(C)c2c1-c1cccc3c(CCCOc4cccc5cc(Cl)ccc45)c(C(=O)O)n(c13)CCCCOC2 (single isomer, unassigned; enantiomer 1) [Example 305] | 5.36 |

Now, please, on to the next compound.
Which IC50 is reported with MCL-1 (Homo sapiens, UniProt Q07820) for this entry: Cc1ccc2c(CCCOc3cccc4ccccc34)c(C(=O)O)n3c2c1-c1c(C)nn(C)c1COCCCC3 (single isomer, unassigned; enantiomer 2) [Example 029] ?
220

====

Test system: SUDHL5
Test: Induction of cytotoxicity (CellTiter-Glo, 5 h), SUDHL5
Conditions: read-out: Cytotox SUDHL5 [M] (median); SUDHL5 cells, cytotoxicity induction, CellTiter-Glo, 5 h incubation, median
# key: entry, value: IC50
Field format: number, assumed M, no unit text.

Check out these entries, answers already filled in.
| Molecule | Measured On | Outcome Measure | Unit Symbol | Value Reported |
| --- | --- | --- | --- | --- |
| CC(C)OCc1nn(C)c2c1-c1cccc3c(CCCOc4cccc5ccccc45)c(C(=O)O)n(c13)CCCN(C)C2 (single isomer, unassigned) [Example 1-72] | SUDHL5 | IC50 | M | 8.53e-06 |
| CCn1nc(C2CC2)c2c1COCCCCn1c(C(=O)O)c(CCCOc3cccc4ccccc34)c3cccc-2c31 (single isomer, unassigned; enantiomer 1) [Example 089] | SUDHL5 | IC50 | M | 7e-06 |
| Cc1ccc2c(C(C)CCOc3cccc4cc(F)ccc34)c(C(=O)O)n3c2c1-c1c(nn(C)c1C)COCCCC3 (single isomer, unassigned) [Example 277] | SUDHL5 | IC50 | M | 2.1e-06 |

Value lookup for IC50; key = CCOCc1nn(C)c2c1-c1cccc3c(CCCOc4cccc5ccccc45)c(C(=O)O)n(c13)CCCCOC2 (single isomer, unassigned; enantiomer 2) [Example 170]
6.94e-06

Look up IC50 for this molecule: Cc1nn(C)c2c1-c1cccc3c(CCCOc4cccc5ccccc45)c(C(=O)O)n(c13)CCCN(c1ccc(N3CCN(S(=O)(=O)N(C)C)CC3)cc1)C2 (single isomer, unassigned; enantiomer 1) [Example 1-106]
1.49e-05

Report IC50 for COCc1nn(C)c2c1-c1cccc3c(CCCOc4cccc5ccccc45)c(C(=O)O)n(c13)CCCCN(C)C2 (single isomer, unassigned; enantiomer 2) [Example 185] please.
2.75e-05

Which IC50 is reported for this molecule? CCc1nn(C)c2c1-c1c(C)ccc3c(C(C)CCOc4cccc5cc(F)ccc45)c(C(=O)O)n(c13)CCCCOC2 (single isomer, unassigned) [Example 265]
2.09e-06

====

Target: MCL-1 (Homo sapiens, UniProt Q07820)
Assay: Protein-protein interaction assay MCL-1/Noxa BH3 peptide (MCL-1 assay), TR-FRET
Format: binding
Conditions: MBP-MCL-1 / Noxa BH3-derived peptide, median
Listed next: entries and their corresponding IC50.
Report the value in nM with no unit label.

Worked examples, 2 compounds total:
| Compound | Outcome Measure | Unit Symbol | Value Reported |
| --- | --- | --- | --- |
| CC(=O)NCc1nn(C)c2c1-c1cccc3c(CCCOc4cccc5ccccc45)c(C(=O)O)n(c13)CCCCOC2 (single isomer, unassigned; enantiomer 1) [Example 340] | IC50 | nM | 21.9 |
| Cc1c2c(nn1C)CN(C)CCCCn1c(C(=O)O)c(CCCOc3cccc4ccccc34)c3cccc-2c31 (single isomer, unassigned; enantiomer 1) [Example 068] | IC50 | nM | 4.42 |

Can you look up the measured IC50 of Cn1nc2c(c1OC(F)F)-c1cccc3c(CCCOc4cccc5ccccc45)c(C(=O)O)n(c13)CCCCOC2 (racemic) [Example 234] for me?
13.9

====

Tested on: A2780
Assay: Anti-proliferative effect (CellTiter-Glo, 72 h), A2780
Format: cell-based
Conditions: A2780 cells, median, read-out: IC50 antiproliferation assay A2780 [M] (median)
Outcome Measure: IC50 (M)
API: value field is a number in M; no unit string.

Take a look at these entries with their results.
| Compound | Unit Symbol | IC50 |
| --- | --- | --- |
| Cc1nn(C)c2c1-c1cccc3c(CCCOc4cccc5ccccc45)c(C(=O)O)n(c13)CCCN(c1ccc(N3CCOCC3)cc1)C2 (single isomer, unassigned; enantiomer 2) [Example 1-100] | M | 1.38e-05 |
| CCc1nn(C)c2c1-c1cccc3c(CCCOc4cccc5cc(C(F)(F)F)ccc45)c(C(=O)O)n(c13)CCCCOC2 (single isomer, unassigned; enantiomer 2) [Example 315] | M | 8.63e-06 |
| CCc1c2c(nn1CCN1CCOCC1)COCCCCn1c(C(=O)O)c(CCCOc3cccc4ccccc34)c3ccc(C)c-2c31 (single isomer, unassigned; enantiomer 2) [Example 206] | M | 2.28e-05 |

Requested field: IC50. Item: CN1CCCCn2c(C(=O)O)c(CCCOc3cccc4ccccc34)c3cccc(c32)-c2c(/C=C/F)nn(C)c2C1 (single isomer, unassigned) [Example 227]
1.65e-05

Look up IC50: Cc1nn(CC(F)(F)F)c2c1-c1cccc3c(CCCOc4cccc5ccccc45)c(C(=O)O)n(c13)CCCCOC2 (single isomer, unassigned; enantiomer 2) [Example 111]
2.61e-05

What measured IC50 goes with CCc1nn(C)c2c1-c1cccc3c(CCCOc4cccc5cc(F)ccc45)c(C(=O)O)n(c13)CCCCOC2 (single isomer, unassigned) [Example 289] ?
2.23e-05

// IC50 lookup, key: Cn1nc(COCc2ccc(C#N)cc2)c2c1COCCCCn1c(C(=O)O)c(CCCOc3cccc4ccccc34)c3cccc-2c31 (single isomer, unassigned; enantiomer 2) [Example 348]
1.46e-05

Give its IC50 value. Item: CN1CCCn2c(C(=O)O)c(CCCOc3cccc4ccccc34)c3cccc(c32)-c2c(COc3ccc(N4CCN(S(C)(=O)=O)CC4)cc3)nn(C)c2C1 (single isomer, unassigned) [Example 1-47]
6.4e-06

Values from patent US10981932B2
